# System: CCRIS mutagenicity, Ames/micronucleus/aberration tests
# TEST DETAILS: CCRIS mutagenicity studies
# EXPERIMENTAL PARAMETERS: Test System: AMES SALMONELLA TYPHIMURIUM; Strain/Indicator: TA1537; Metabolic Activation: RAT, LIVER, S-9, AROCLOR 1254 (10%); Method: PREINCUBATION
Active and inactive are the calls of the source. No rule for the calls is given here.
Possible outcomes: YES (active), NO (inactive)

{"COMPOUND": "O=c1ccc(=O)[nH][nH]1", "SYSTEM NAME": "CCRIS mutagenicity, Ames/micronucleus/aberration tests", "CATEGORY LABEL": "NO"}
{"COMPOUND": "O=C(O)CCC(=O)OC[C@@H](NC(=O)C(Cl)Cl)[C@H](O)c1ccc([N+](=O)[O-])cc1", "SYSTEM NAME": "CCRIS mutagenicity, Ames/micronucleus/aberration tests", "CATEGORY LABEL": "NO"}
{"COMPOUND": "C[O+](C)C.[Cl][Sb-]([Cl])([Cl])([Cl])([Cl])[Cl]", "SYSTEM NAME": "CCRIS mutagenicity, Ames/micronucleus/aberration tests", "CATEGORY LABEL": "NO"}
{"COMPOUND": "c1ccc(OP(Oc2ccccc2)Oc2ccccc2)cc1", "SYSTEM NAME": "CCRIS mutagenicity, Ames/micronucleus/aberration tests", "CATEGORY LABEL": "NO"}
{"COMPOUND": "CCOC(=O)OCC", "SYSTEM NAME": "CCRIS mutagenicity, Ames/micronucleus/aberration tests", "CATEGORY LABEL": "NO"}
{"COMPOUND": "O=C(NO)c1ccccc1", "SYSTEM NAME": "CCRIS mutagenicity, Ames/micronucleus/aberration tests", "CATEGORY LABEL": "YES"}
{"COMPOUND": "C=CC(=O)OCCN(C)C", "SYSTEM NAME": "CCRIS mutagenicity, Ames/micronucleus/aberration tests", "CATEGORY LABEL": "NO"}
{"COMPOUND": "CC(C)CC(=O)CC(C)C", "SYSTEM NAME": "CCRIS mutagenicity, Ames/micronucleus/aberration tests", "CATEGORY LABEL": "NO"}
{"COMPOUND": "O=C(O)c1ccc([N+](=O)[O-])cc1", "SYSTEM NAME": "CCRIS mutagenicity, Ames/micronucleus/aberration tests", "CATEGORY LABEL": "NO"}
{"COMPOUND": "C=CC(=O)OCC(C)C", "SYSTEM NAME": "CCRIS mutagenicity, Ames/micronucleus/aberration tests", "CATEGORY LABEL": "NO"}
{"COMPOUND": "C=CCOC(=O)C=C", "SYSTEM NAME": "CCRIS mutagenicity, Ames/micronucleus/aberration tests", "CATEGORY LABEL": "NO"}
{"COMPOUND": "O=C1OC(=O)c2ccccc21", "SYSTEM NAME": "CCRIS mutagenicity, Ames/micronucleus/aberration tests", "CATEGORY LABEL": "NO"}
{"COMPOUND": "CC1=NN(c2ccccc2)C(=O)C1", "SYSTEM NAME": "CCRIS mutagenicity, Ames/micronucleus/aberration tests", "CATEGORY LABEL": "NO"}
{"COMPOUND": "Nc1cc([N+](=O)[O-])ccc1O", "SYSTEM NAME": "CCRIS mutagenicity, Ames/micronucleus/aberration tests", "CATEGORY LABEL": "NO"}
{"COMPOUND": "C=CCNCC=C", "SYSTEM NAME": "CCRIS mutagenicity, Ames/micronucleus/aberration tests", "CATEGORY LABEL": "NO"}
{"COMPOUND": "CCCCC(CC)COP(OCC(CC)CCCC)OCC(CC)CCCC (centres undefined)", "SYSTEM NAME": "CCRIS mutagenicity, Ames/micronucleus/aberration tests", "CATEGORY LABEL": "NO"}
{"COMPOUND": "O=S1(=O)CC=CC1", "SYSTEM NAME": "CCRIS mutagenicity, Ames/micronucleus/aberration tests", "CATEGORY LABEL": "NO"}
{"COMPOUND": "CC(CCN(C)C)N(C)C (centres undefined)", "SYSTEM NAME": "CCRIS mutagenicity, Ames/micronucleus/aberration tests", "CATEGORY LABEL": "NO"}
{"COMPOUND": "Cc1c(Br)c(Br)c(Br)c(Br)c1Br", "SYSTEM NAME": "CCRIS mutagenicity, Ames/micronucleus/aberration tests", "CATEGORY LABEL": "NO"}
{"COMPOUND": "Oc1cccc(O)c1", "SYSTEM NAME": "CCRIS mutagenicity, Ames/micronucleus/aberration tests", "CATEGORY LABEL": "NO"}
{"COMPOUND": "C=CC1CC=CCC1 (centres undefined)", "SYSTEM NAME": "CCRIS mutagenicity, Ames/micronucleus/aberration tests", "CATEGORY LABEL": "NO"}
{"COMPOUND": "NCCCCCCN", "SYSTEM NAME": "CCRIS mutagenicity, Ames/micronucleus/aberration tests", "CATEGORY LABEL": "NO"}
{"COMPOUND": "O=Cc1ccco1", "SYSTEM NAME": "CCRIS mutagenicity, Ames/micronucleus/aberration tests", "CATEGORY LABEL": "NO"}
{"COMPOUND": "Nc1ccc(C(=O)O)cc1", "SYSTEM NAME": "CCRIS mutagenicity, Ames/micronucleus/aberration tests", "CATEGORY LABEL": "NO"}
{"COMPOUND": "CCc1c(Br)c(Br)c(Br)c(Br)c1Br", "SYSTEM NAME": "CCRIS mutagenicity, Ames/micronucleus/aberration tests", "CATEGORY LABEL": "NO"}
{"COMPOUND": "CC(C)Nc1ccc(Nc2ccccc2)cc1", "SYSTEM NAME": "CCRIS mutagenicity, Ames/micronucleus/aberration tests", "CATEGORY LABEL": "NO"}
{"COMPOUND": "CC1=CC(C)(C)Nc2ccccc21", "SYSTEM NAME": "CCRIS mutagenicity, Ames/micronucleus/aberration tests", "CATEGORY LABEL": "NO"}
{"COMPOUND": "Nc1ccc2c(c1)C(=O)/C(=N/Nc1ccc(-c3ccc(N/N=C4/C(=O)c5c(N)cc(S(=O)(=O)O)cc5C=C4S(=O)(=O)O)cc3)cc1)C(S(=O)(=O)O)=C2", "SYSTEM NAME": "CCRIS mutagenicity, Ames/micronucleus/aberration tests", "CATEGORY LABEL": "NO"}
{"COMPOUND": "COc1cc(-c2ccc(N/N=C3/C(=O)c4c(N)cc(S(=O)(=O)O)cc4C=C3S(=O)(=O)O)c(OC)c2)ccc1N/N=C1/C(=O)c2c(N)cc(S(=O)(=O)O)cc2C=C1S(=O)(=O)O", "SYSTEM NAME": "CCRIS mutagenicity, Ames/micronucleus/aberration tests", "CATEGORY LABEL": "NO"}
{"COMPOUND": "Nc1ccc([N+](=O)[O-])cc1O", "SYSTEM NAME": "CCRIS mutagenicity, Ames/micronucleus/aberration tests", "CATEGORY LABEL": "YES"}
{"COMPOUND": "CCC(Cl)C(Cl)C(Cl)CC(Cl)C(Cl)C(C)Cl (centres undefined)", "SYSTEM NAME": "CCRIS mutagenicity, Ames/micronucleus/aberration tests", "CATEGORY LABEL": "NO"}
{"COMPOUND": "O=C(CCl)c1ccccc1", "SYSTEM NAME": "CCRIS mutagenicity, Ames/micronucleus/aberration tests", "CATEGORY LABEL": "NO"}
{"COMPOUND": "C=CC(=O)O", "SYSTEM NAME": "CCRIS mutagenicity, Ames/micronucleus/aberration tests", "CATEGORY LABEL": "NO"}
{"COMPOUND": "CCOc1ccc(N=Nc2ccc(-c3ccc(N=Nc4c(O)ccc5cc(S(=O)(=O)O)cc(S(=O)(=O)O)c45)c(C)c3)cc2C)cc1", "SYSTEM NAME": "CCRIS mutagenicity, Ames/micronucleus/aberration tests", "CATEGORY LABEL": "NO"}
{"COMPOUND": "Cc1cc(-c2ccc(N=Nc3cc(S(=O)(=O)O)c4ccccc4c3N)c(C)c2)ccc1N=Nc1cc(S(=O)(=O)O)c2ccccc2c1N", "SYSTEM NAME": "CCRIS mutagenicity, Ames/micronucleus/aberration tests", "CATEGORY LABEL": "NO"}
{"COMPOUND": "COc1c(Cl)c(Cl)c(Cl)c(Cl)c1Cl", "SYSTEM NAME": "CCRIS mutagenicity, Ames/micronucleus/aberration tests", "CATEGORY LABEL": "NO"}
{"COMPOUND": "Nc1nc(N)c2nc(-c3ccccc3)c(N)nc2n1", "SYSTEM NAME": "CCRIS mutagenicity, Ames/micronucleus/aberration tests", "CATEGORY LABEL": "NO"}
{"COMPOUND": "Cc1ccc(N)c(C)c1", "SYSTEM NAME": "CCRIS mutagenicity, Ames/micronucleus/aberration tests", "CATEGORY LABEL": "NO"}
{"COMPOUND": "O=C1NC(=O)c2cc([N+](=O)[O-])ccc21", "SYSTEM NAME": "CCRIS mutagenicity, Ames/micronucleus/aberration tests", "CATEGORY LABEL": "YES"}
